Cited source: patent US20250171465A1

Property: IC50; scope: individual compounds
Test system: KU1919.1
Assay: Cell Titer Glo (CTG) proliferation assay, KU1919
Format: cell-based
Conditions: Homo sapiens, KU-19-19; KU1919.1 cells, 72.0 hrs.; read-out: AVE CTG Proliferation KU1919.1 72.0 hrs.
Procedure: Seed cells in 40 μL of cell culture media into each well of 384-well cell culture plate, spin them at room temperature at 1,000 RPM for 1 minute and then transfer the plates into 37° C. 5% CO2 incubator overnight. Next day, treat cells with 40 nL of diluted compound and return to incubator. After compound treatment for 3 days, Add 30 μL of CellTiter-Glo reagent (Promega) into each well to be detected. Then place the plates at room temperature for 30 min followed by reading on EnVision. […]

Would you please look over these solved cases?
[[record]]
compound = "CCc1cccc(-c2cc(F)c(C(=O)N3CCC(OC4CCN(CC(=O)NCCNC[C@@H](C(=O)N5CCN(c6ncnc7c6[C@H](C)C[C@H]7O)CC5)c5ccc(Cl)cc5)CC4)CC3)c(F)c2)c1 [Compound I-261]"
readout_value = "1 to 5 µM"

[[record]]
compound = "CCc1cccc(-c2cnc(C(=O)N3CCN(CC4CCN(CC(=O)NCCNC[C@@H](C(=O)N5CCN(c6ncnc7c6[C@H](C)C[C@H]7O)CC5)c5ccc(Cl)cc5)CC4)CC3)c(NC(=O)OC(C)(C)C)c2)c1 [Compound I-306]"
readout_value = "1 to 5 µM"

[[record]]
compound = "C[C@@H]1C[C@@H](O)c2ncnc(N3CCN(C(=O)[C@H](CCN4CCC(CN5CCN(C(=O)[C@H](NC(=O)c6cccc(C7CCCN(C(=O)CNC8CC8)C7)c6)C6CCCCC6)CC5)CC4)c4ccc(Cl)cc4)CC3)c21 (stereo partly drawn) [Compound I-272]"
readout_value = "1 to 5 µM"

[[record]]
compound = "C[C@@H]1C[C@@H](O)c2ncnc(N3CCN(C(=O)[C@H](CN4CCC(OC5CCN(C(=O)[C@H](NC(=O)c6cccc(C7CCCN(C(=O)C8(C)CC8)C7)c6F)C6CCCCC6)CC5)CC4)c4ccc(Cl)cc4)CC3)c21 (stereo partly drawn) [Compound I-291]"
readout_value = "1 to 5 µM"

[[record]]
compound = "C[C@@H]1C[C@@H](O)c2ncnc(N3CCN(C(=O)[C@H](CNCCNC(=O)CN4CCC(CN5CCN(C(=O)[C@H](NC(=O)c6cccc(C7CCCN(C(=O)CNC8CC8)C7)c6)C6CCCCC6)CC5)CC4)c4ccc(Cl)cc4)CC3)c21 (stereo partly drawn) [Compound I-205]"
readout_value = "5 to 10 µM"


Query :: Recorded IC50 of NC1(C(=O)N[C@@H](CCN2CCC(OC3CCN(C(=O)c4cccc(C5CCCN(C(=O)C6CC6)C5)c4)CC3)CC2)c2ccc(Cl)cc2)CCN(c2ncnc3[nH]ccc23)CC1 (stereo partly drawn) [Compound I-248] , please.
Result :: 1 to 5 µM

Query :: Request: C[C@@H]1C[C@@H](O)c2ncnc(N3CCN(C(=O)[C@H](CNC4CCN(CC5CCN(C(=O)[C@H](NC(=O)c6cccc(C7CCCN(C(=O)C8CC8)C7)c6)C6CCCCC6)CC5)CC4)c4ccc(Cl)cc4)CC3)c21 (stereo partly drawn) [Compound I-214]
Result :: 1 to 5 µM

Query :: Record: CC1(C(=O)N2CCCC(c3cccc(C(=O)N[C@@H](C(=O)N4CCC(OC5CCN(CC[C@H](NC(=O)C6(N)CCN(c7ncnc8[nH]ccc78)CC6)c6ccc(Cl)cc6)CC5)CC4)C4CCCCC4)c3F)C2)CC1 (stereo partly drawn) [Compound I-282]
Result :: 1 to 5 µM

Query :: # iterate: NC1(C(=O)N[C@@H](CCNS(=O)(=O)CCCCNC(=O)[C@H](NC(=O)c2cccc(C3CCCN(C(=O)C4CC4)C3)c2)C2CCCCC2)c2ccc(Cl)cc2)CCN(c2ncnc3[nH]ccc23)CC1 (stereo partly drawn) [Compound I-234]
Result :: > 10 µM

Query :: What about this compound? NC1(C(=O)N[C@@H](CCN2CCN(C(=O)CN3CCC(CN4CCN(C(=O)c5cccc(C6CCCN(C(=O)C7CC7)C6)c5)CC4)CC3)CC2)c2ccc(Cl)cc2)CCN(c2ncnc3[nH]ccc23)CC1 (stereo partly drawn) [Compound I-233]
Result :: 5 to 10 µM

Query :: Same question, CCc1cccc(-c2cnc(C(=O)N3CCN(CC45CCC(NCC(=O)NCCNC[C@@H](C(=O)N6CCN(c7cccc8c7[C@H](C)C[C@H]8O)CC6)c6ccc(Cl)cc6)(CC4)CO5)CC3)c(NC(=O)OC(C)(C)C)c2)c1 [Compound I-305] this time
Result :: 1 to 5 µM
